selectivity ratio for assorted compounds
Experiment: Selectivity index, ratio of CC50 for human THP1 cells to MIC for dormant stage of Mycobacterium bovis BCG ATCC 35734
Format: toxicity, cell-based, THP-1
Settings: read-out: Selectivity Index

See these solved cases before continuing.
Recall and state the measured selectivity ratio for "Cc1nc(-c2cccnc2)sc1-c1nnc(-c2ccccc2Cl)o1" . 21

Recall and state the measured selectivity ratio for "Cc1ccccc1-c1nnc(-c2sc(-c3cccnc3)nc2C)o1" . 20

Recall and state the measured selectivity ratio for "Cc1nc(-c2cccnc2)sc1-c1nnc(-c2ccccc2)o1" . 3

Recall and state the measured selectivity ratio for "Cc1ccc(-c2nnc(-c3sc(-c4cccnc4)nc3C)o2)cc1" . 3

More entries:
Recall and state the measured selectivity ratio for "Cc1nc(-c2cccnc2)sc1-c1nnc(-c2ccccc2[N+](=O)[O-])o1" . 17

Recall and state the measured selectivity ratio for "Cc1nc(-c2cccnc2)sc1-c1nnc(-c2cccc(Cl)c2Cl)o1" . 3

Cited source for all entries: ChEMBL document CHEMBL3822409
